Recorded values, source patent US20180291110A1.

- measured_target: T1, human transferrin receptor (recombinant, for surface plasmon resonance) (human, UniProt P02786 89-760)
- T1 construct: also called huTfR; human transferrin receptor-biotinylated
- T1 sequence (P02786 89-760 limits assumed): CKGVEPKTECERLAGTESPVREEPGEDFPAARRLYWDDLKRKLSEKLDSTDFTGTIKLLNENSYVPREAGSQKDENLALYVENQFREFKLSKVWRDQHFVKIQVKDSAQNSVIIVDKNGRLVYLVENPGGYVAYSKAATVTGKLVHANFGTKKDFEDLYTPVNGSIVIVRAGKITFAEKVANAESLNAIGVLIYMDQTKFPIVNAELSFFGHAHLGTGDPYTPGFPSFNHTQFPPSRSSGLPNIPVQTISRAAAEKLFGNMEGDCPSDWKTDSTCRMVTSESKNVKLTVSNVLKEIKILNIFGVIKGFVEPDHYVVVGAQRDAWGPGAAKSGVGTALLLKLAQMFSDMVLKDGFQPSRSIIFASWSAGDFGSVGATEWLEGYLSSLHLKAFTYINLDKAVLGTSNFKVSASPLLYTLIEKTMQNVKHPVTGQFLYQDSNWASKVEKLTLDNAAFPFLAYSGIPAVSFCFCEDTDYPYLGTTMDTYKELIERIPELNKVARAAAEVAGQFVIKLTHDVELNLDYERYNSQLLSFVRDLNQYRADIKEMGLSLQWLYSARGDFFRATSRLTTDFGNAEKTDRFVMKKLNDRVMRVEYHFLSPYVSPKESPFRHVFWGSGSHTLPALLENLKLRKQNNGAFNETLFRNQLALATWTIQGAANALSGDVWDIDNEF
- assay_overview: SPR 25C
metric: koff (s⁻¹)
The reply should be a number in s⁻¹, with the unit left off.

Give the measured koff for 2/99 VH2/VL6 (antibody, V domains shown) VH: EVQLVETGGGLIQPGGSLRLSCAASGFSLSSYAMSWVRQAPGKGLEWVGYIWSGGSTDYADSVKGRFTISRDNSKNTLYLQMNSLRAEDTAVYYCARRYGTSYPDYGDANGFDPWGQGTLVTVSS VL: AIQLTQSPSSLSASVGDRVTITCRASQSISSYLSWYQQKPGKAPKLLIYRASTLASGVPSRFSGSGSGTDFTLTISSLQPEDFATYYCQQSYSSSNVDNTFGGGTKVEIK 0.00555

Give koff for the following binder: 2/99 VH1/VL14 (antibody, V domains shown) VH: VQLVETGGGLIQPGGSLRLSCAASGFSLSSYAMSWVRQAPGKGLEWVGYIWSGGSTDYADSVKGRFTISRDNSKNTLYLQMNSLRAEDTAVYYCARRYGTSYPDYGDANGFDPWGQGTLVTVSS VL: DIVMTQSPDSLAVSLGERATINCKSSQSISSYLSWYQQKPGQRPKLLIYRASTLASGVPDRFSGSGSGTDFTLTISSLQAEDVAVYYCQQSYSSSNVDNTFGGGTKVEIK 0.00299

Give the reported value of koff for this record: 2/99 VH12/VL8 (antibody, V domains shown) VH: QVQLQESGPGLVKPSETLSLTCTVSGFSLSSYAMSWIRQPPGKGLEWIGYIWSGGSTDYNPSLKSRVTISVDTSKNQFSLKLSSVTAADTAVYYCARRYGTSYPDYGDANGFDPWGQGTLVTVSS VL: AYQLTQSPSSLSASVGDRVTITCRASQSISSYLSWYQQKPGKAPKLLIYRASTLASGVPSRFSGSGSGTDFTLTISSLQPEDFATYYCQQSYSSSNVDNTFGGGTKVEIK 0.00531

Name the recorded koff of the binder listed here: 2/99 VH9/VL3 (antibody, V domains shown) VH: QQLLESGGGLVQPGGSLRLSCAASGFTFSSYAMSWVRQAPGKGLEWVGYIWSGGSTDYADSVKGRFTISRDNSKNTLYLQMNSLRAEDTAVYYCAKRYGTSYPDYGDANGFDPWGQGTLVTVSS VL: AYQMTQSPSSLSASVGDRVTITCRASQSISSYLNWYQQKPGKAPKLLIYRASTLASGVPSRFSGSGSGTDFTLTISSLQPEDFATYYCQQSYSSSNVDNTFGGGTKVEIK 0.00417

Provide measured koff value, entry: 2/99 VH15/VL2 (antibody, V domains shown) VH: QQLQESGPGLVKPSETLSLTCTVSGFSLSSYAMSWVRQPPGKGLEWIGYIWSGGSTDYNPSLKSRVTISVDTSKNQVSLKLSSVTAADTAVYYCARRYGTSYPDYGDANGFDPWGQGTLVTVSS VL: DIQMTQSPSSLSASVGDRVTITCRASQSISSYLNWYQQKPGKAPKLLIYRASTLASGVPSRFSGSGSGTDFTLTISSLQPEDFATYYCQQSYSSSNVDNTFGGGTKVEIK 0.00216
